target: turkey β3C-adrenoceptor (tβ3C) (Meleagris gallopavo); test: CRE-SPAP production, CHO tβ3C cells; format: cell-based; details: Log KD CGP20712A, vs agonist salbutamol, CRE-SPAP, CHO tβ3C cells
Sequence (A0A803YLI8 entry or part of it): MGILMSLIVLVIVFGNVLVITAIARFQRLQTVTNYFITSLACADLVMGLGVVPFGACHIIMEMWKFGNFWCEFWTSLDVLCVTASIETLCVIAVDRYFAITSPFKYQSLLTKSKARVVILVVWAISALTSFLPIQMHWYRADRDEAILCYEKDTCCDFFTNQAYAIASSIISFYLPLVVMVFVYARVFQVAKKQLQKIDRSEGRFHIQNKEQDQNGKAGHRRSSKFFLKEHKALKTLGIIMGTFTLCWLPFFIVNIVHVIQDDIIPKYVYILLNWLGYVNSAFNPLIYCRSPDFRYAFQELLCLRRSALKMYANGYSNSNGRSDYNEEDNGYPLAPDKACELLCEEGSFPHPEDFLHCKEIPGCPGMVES
parameterMeasured: pKd
Reminder that pKd means the negative base-10 logarithm of the concentration expressed in mol/L.

Considering Cn1cc(C(F)(F)F)nc1-c1ccc(OCC(O)CNCCOc2ccc(O)c(C(N)=O)c2)cc1 (stereo not shown) [CGP20712A] , its pKd with turkey β3C-adrenoceptor (tβ3C) (Meleagris gallopavo) was recorded as 5.49

* * *

target: turkey β4C-adrenoceptor (tβ4C) (Meleagris gallopavo, UniProt P43141); construct: expressed in transfected cells; assay: cell-based; format: cell-based; conditions: CRE-SPAP production, CHO tβ4C cells; read-out: Log EC50 (converted)
Sequence (P43141 whole entry): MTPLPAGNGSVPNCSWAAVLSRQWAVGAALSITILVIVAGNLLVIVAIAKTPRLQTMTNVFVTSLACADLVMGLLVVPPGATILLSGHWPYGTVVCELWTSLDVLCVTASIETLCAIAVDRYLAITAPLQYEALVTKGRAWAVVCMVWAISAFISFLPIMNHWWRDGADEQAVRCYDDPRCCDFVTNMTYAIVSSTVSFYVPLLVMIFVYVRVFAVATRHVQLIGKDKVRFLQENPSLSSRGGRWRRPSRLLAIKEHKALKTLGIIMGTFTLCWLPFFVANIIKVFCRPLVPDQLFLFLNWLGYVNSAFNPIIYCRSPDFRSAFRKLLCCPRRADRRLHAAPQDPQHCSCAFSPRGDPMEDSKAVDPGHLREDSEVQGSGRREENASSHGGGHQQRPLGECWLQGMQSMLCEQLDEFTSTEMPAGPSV
parameterMeasured: EC50 (nM)
Only the number, expressed in nM, is required.

Value of EC50 reported for the compound CC(C)(C)NCC(O)c1ccc(O)c(CO)c1 (stereo not shown) is 42.7

Value of EC50 reported for the compound CC(CCc1ccc(O)cc1)NCCc1ccc(O)c(O)c1 (stereo not shown) is 158

Value of EC50 reported for the compound NC[C@H](O)c1ccc(O)c(O)c1 is 81.3

Value of EC50 reported for the compound CNC[C@H](O)c1ccc(O)c(O)c1 is 191
